- assayedTarget: T1, human αvβ5 expressed on BaF3 cells (stably transfected with human αv and β5 subunits) (human, UniProt P06756 31-1048; P18084 24-799)
- T1 construct: also called αvβ5-BaF3; BaF3-hu αvβ5
- T1 sequence (P06756 31-1048 limits assumed, chain 1 of 2): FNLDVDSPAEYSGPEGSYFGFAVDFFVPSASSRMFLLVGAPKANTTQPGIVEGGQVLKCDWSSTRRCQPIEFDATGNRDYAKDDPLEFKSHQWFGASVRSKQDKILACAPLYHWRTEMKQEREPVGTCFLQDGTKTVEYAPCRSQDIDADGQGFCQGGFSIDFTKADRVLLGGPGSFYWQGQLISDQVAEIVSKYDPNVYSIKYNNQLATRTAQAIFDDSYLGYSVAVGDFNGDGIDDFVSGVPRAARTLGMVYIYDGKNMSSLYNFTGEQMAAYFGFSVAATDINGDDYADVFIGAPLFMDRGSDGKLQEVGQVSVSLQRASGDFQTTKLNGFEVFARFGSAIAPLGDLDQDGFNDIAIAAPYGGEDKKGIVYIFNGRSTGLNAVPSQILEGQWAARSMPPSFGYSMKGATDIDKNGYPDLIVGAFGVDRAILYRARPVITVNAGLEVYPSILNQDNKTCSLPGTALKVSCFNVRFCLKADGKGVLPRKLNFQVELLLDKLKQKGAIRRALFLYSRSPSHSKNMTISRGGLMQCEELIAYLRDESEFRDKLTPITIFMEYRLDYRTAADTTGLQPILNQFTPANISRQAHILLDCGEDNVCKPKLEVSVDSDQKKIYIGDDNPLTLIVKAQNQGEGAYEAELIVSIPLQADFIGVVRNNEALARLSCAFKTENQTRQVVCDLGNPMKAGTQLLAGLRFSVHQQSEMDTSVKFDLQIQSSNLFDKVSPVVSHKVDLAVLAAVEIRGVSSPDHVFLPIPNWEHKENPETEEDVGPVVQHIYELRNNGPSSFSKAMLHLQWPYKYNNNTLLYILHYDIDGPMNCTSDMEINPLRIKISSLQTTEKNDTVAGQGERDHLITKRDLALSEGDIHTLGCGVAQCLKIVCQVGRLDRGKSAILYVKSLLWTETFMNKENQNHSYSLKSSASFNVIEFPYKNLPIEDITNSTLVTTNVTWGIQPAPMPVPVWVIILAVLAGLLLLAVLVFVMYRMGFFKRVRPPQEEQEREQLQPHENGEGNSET
- T1 sequence (P18084 24-799 limits assumed, chain 2 of 2): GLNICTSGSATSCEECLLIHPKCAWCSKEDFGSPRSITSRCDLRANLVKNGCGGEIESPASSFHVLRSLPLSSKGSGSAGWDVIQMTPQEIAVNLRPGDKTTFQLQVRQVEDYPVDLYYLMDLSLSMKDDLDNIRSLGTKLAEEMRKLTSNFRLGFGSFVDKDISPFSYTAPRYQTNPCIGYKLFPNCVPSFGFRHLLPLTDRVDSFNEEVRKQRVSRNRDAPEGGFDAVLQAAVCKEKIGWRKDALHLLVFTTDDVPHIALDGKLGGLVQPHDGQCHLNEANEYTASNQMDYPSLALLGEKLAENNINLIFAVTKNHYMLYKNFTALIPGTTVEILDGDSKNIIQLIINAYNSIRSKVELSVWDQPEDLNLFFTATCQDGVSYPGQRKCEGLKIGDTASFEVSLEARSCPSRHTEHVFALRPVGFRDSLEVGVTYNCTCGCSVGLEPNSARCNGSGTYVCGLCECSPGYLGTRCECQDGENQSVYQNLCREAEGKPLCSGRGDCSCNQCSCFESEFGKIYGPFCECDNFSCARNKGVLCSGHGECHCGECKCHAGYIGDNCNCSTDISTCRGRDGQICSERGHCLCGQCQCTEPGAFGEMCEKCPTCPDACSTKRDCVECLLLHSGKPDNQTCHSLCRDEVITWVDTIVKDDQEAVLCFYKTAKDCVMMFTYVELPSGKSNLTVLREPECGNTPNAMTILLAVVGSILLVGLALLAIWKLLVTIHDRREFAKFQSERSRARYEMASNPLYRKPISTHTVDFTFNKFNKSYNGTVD
- protocol: FACS on BaF3-hu αvβ5 cells
pEC50: −log10 of the molar value.
endpointName: pEC50

[[record]]
binder = "VH4/VL0 Agly-IgG4.P (S228P)/IgG1 (N297Q) (antibody, V domains shown, also called VH4/VL0 (Agly-IgG4P/G1); H4/L0) VH: EVQVVQSGGGLVKPGESLRLSCKASGYTFTSYWMHWVKQAPGKGLEWVGAIYPGNSDTSYNQKFKGKFTISADTSPNTAYLQMNSLKTEDTAVYYCTTTTYGYDWFAYWGQGTLVTVSS VL: DIQMTQSPSSVSASVGDRVTITCKSSQSVLYSSNQKNYLAWYQQKPGKAPKLLIYWASTRESGVPSRFSGSGSGTDFTLTISSLQPEDFATYYCHQYLSSLTFGQGTKVEIKR"
endpointvalue = 8.60


All values here come from patent US20170362324A1.
